Hello, the source for this data is PubChem BioAssay (Tox21), in case you need it.

EXPERIMENT_SUMMARY: qHTS assay to identify small molecule agonists of the TGF-beta/Smad signaling pathway - cell viability counter screen (AID 1346829); note: top concentration of the series differs between compounds; % is set by controls: 0 for no effect and ±100 for the full control effect; nearly all actives have a fitted effect of over 45% in size
CONDITIONS_USED: SBE-bla HEK293T viability, CellTiter-Glo luminescence, 5 h; series mostly up to 76.8 µM
Inconclusive results are not listed. Calls of active or inactive are those of the source. Calls come from the whole dose curve; as a rule, active = well fitted cell-killing curve with a large enough effect in the repeat runs; inconclusive = weak or mixed curves, or effect the other way; inactive = flat fitted curve, though single readings scatter.
METRIC: activity change, negative = cytotoxicity

[
  {
    "SMILES_STRUCTURE": "CCCOc1ccc2nc(NC(=O)OC)[nH]c2c1",
    "RESULT": "inactive"
  },
  {
    "SMILES_STRUCTURE": "NC[C@H]1O[C@H](O[C@H]2[C@H](O)[C@@H](O[C@H]3O[C@H](CO)[C@@H](O)[C@H](N)[C@H]3O)[C@H](N)C[C@@H]2N)[C@H](O)[C@@H](O)[C@@H]1O",
    "RESULT": "4.11% [at 6.97 µM] (inactive)"
  },
  {
    "SMILES_STRUCTURE": "CC(=O)O[C@H]1C[C@@H]2CC[C@@H]3[C@H](CC[C@@]4(C)[C@H]3C[C@H]([N+]3(C)CCCCC3)[C@@H]4OC(C)=O)[C@@]2(C)C[C@@H]1N1CCCCC1",
    "RESULT": "inactive"
  },
  {
    "SMILES_STRUCTURE": "Cc1cc(CC(=O)O)c(C)n1-c1ccc(Cl)cc1",
    "RESULT": "inactive"
  }
]

---

EXPERIMENT_SUMMARY: qHTS RealTime-Glo MT Cell Viability Assay in HEK293 cells - 16 hour (AID 1224872); note: top concentration of the series differs between compounds; % is set by controls: 0 for no effect and ±100 for the full control effect; nearly all actives have a fitted effect of over 50% in size
CONDITIONS_USED: RealTime-Glo luminescence; series mostly up to 76.8 µM
Inconclusive results are not listed. Calls of active or inactive are those of the source. The call rests on the fitted dose curve; in most records, active means well fitted cell-killing curve with a large enough effect in the repeat runs; inconclusive means weak or mixed curves, or effect the other way; inactive means flat fitted curve, though single readings scatter.
METRIC: outcome

// worked examples, outcome included
[
  {
    "COMPOUND": "O=[N+]([O-])c1cc[n+]([O-])cc1",
    "outcome": "inactive"
  },
  {
    "COMPOUND": "CCCCCCCCCC=O",
    "outcome": "inactive"
  },
  {
    "COMPOUND": "CC(=O)/C=C/C1C(C)=CCCC1(C)C (configuration not stated)",
    "outcome": "inactive"
  },
  {
    "COMPOUND": "O=C(O)Cc1sc(-c2ccccc2)nc1-c1ccc(Cl)cc1",
    "outcome": "inactive"
  },
  {
    "COMPOUND": "N#CCc1cccc(C(F)(F)F)c1",
    "outcome": "inactive"
  }
]

Task item: I'd like to know its outcome. The compound in question is `Cc1ccc(C(N)=O)cc1N`
Reply: inactive

Task item: I'd like to know its outcome. The compound in question is CCN(CC)CCNC(C(=O)OCCC(C)C)c1ccccc1 (configuration not stated)
Reply: inactive

---

EXPERIMENT_SUMMARY: A CellTox Green Cytotoxicity Assay to monitor cytotoxicity in HepG2 cells - 24 hour (AID 1224878); note: nearly all actives have a fitted effect of over 45% in size; for Cytotoxicity: % is set by controls: 0 for no effect and ±100 for the full control effect
CONDITIONS_USED: CellTox Green fluorescence; series mostly up to 76.8 µM
Description: National Center for Advancing Translational Sciences [NCATS] NIH Chemical Genomics Center [NCGC] U.S. Environmental Protection Agency [EPA] National Institutes of Environmental Health Sciences [NIEHS] National Toxicology Program [NTP] Cell-based models are critical for drug discovery. […] Viable cells produce no appreciable increases in fluorescence. Therefore, the fluorescence signal produced by the binding interaction with dead cell DNA is proportional to cytotoxicity. […]
Records with an inconclusive call do not appear. Activity calls are given as the source filed them. Calls follow the shape of the dose curve; as a rule, active = well fitted activation curve with a large enough effect in the repeat runs; inconclusive = weak or mixed curves; inactive = flat fitted curve, though single readings scatter.
Select the matching outcome among yes = active, no = inactive

Task item: Hey, what did the test say about `CC(C)(C)c1cc(CO)cc(C(C)(C)C)c1O` ?
Reply: no

Task item: Hey, what did the test say about `CCOC(=O)CC(=O)c1cc(F)c(Cl)nc1Cl` ?
Reply: no

Task item: Hey, what did the test say about `O=C1CCCCCO1` ?
Reply: no

Task item: Hey, what did the test say about `CCOC(=O)CC(C)C` ?
Reply: no

Task item: Hey, what did the test say about CCN(CC)C(C)CN1c2ccccc2Sc2ccccc21 (centres undefined) ?
Reply: no

Task item: Hey, what did the test say about `C[Si](C)O[Si](C)(C)O[Si](C)(C)O[Si](C)C` ?
Reply: no

Task item: Hey, what did the test say about `Oc1ccc2c(c1)OCO2` ?
Reply: no

Task item: Hey, what did the test say about `CCCCC(CC)(CO)CO` ?
Reply: no

Task item: Hey, what did the test say about `C[C@@H](C1=C(CCN(C)C)Cc2ccccc21)c1ccccn1` ?
Reply: no

Task item: Hey, what did the test say about OCC1CC2CC1C1CCC(CO)C21 (centres undefined) ?
Reply: no

Task item: Hey, what did the test say about `CC(=O)[C@@]1(O)CC[C@H]2[C@@H]3C[C@H](C)C4=CC(=O)CC[C@]4(C)[C@H]3CC[C@@]21C` ?
Reply: no

Task item: Hey, what did the test say about `C=C(C)C(=O)OC(C)C` ?
Reply: no

Task item: Hey, what did the test say about Oc1ccc(C(O)CNCCCCCCNCC(O)c2ccc(O)c(O)c2)cc1O (centres undefined) ?
Reply: no

Task item: Hey, what did the test say about Cc1ccc(C(=O)C(C)CN2CCCCC2)cc1 (centres undefined) ?
Reply: no

Task item: Hey, what did the test say about `CN1CCC(OC(c2ccccc2)c2ccccc2)CC1` ?
Reply: no

Task item: Hey, what did the test say about `C1=Cc2ccccc2C1` ?
Reply: no

Task item: Hey, what did the test say about `c1ccc(CNCc2ccccc2)cc1` ?
Reply: no

Task item: Hey, what did the test say about `Nc1nc(CC(=O)O)cs1` ?
Reply: no

Task item: Hey, what did the test say about `CN1CCN(C2=Nc3cc(Cl)ccc3Nc3ccccc32)CC1` ?
Reply: yes

Task item: Hey, what did the test say about `O=C(O)Cc1cc(I)c(Oc2ccc(O)c(I)c2)c(I)c1` ?
Reply: no

Task item: Hey, what did the test say about `Cc1ccc2c(ccc3ccccc32)c1` ?
Reply: no

Task item: Hey, what did the test say about `O=[N+]([O-])c1cc[n+]([O-])cc1` ?
Reply: no

Task item: Hey, what did the test say about O=C(c1ccccc1)c1ccc2n1CCC2C(=O)O (centres undefined) ?
Reply: no

Task item: Hey, what did the test say about `Cc1cccc(C(C)(C)C)c1O` ?
Reply: no

Task item: Hey, what did the test say about `CN(C)C/C=C(/c1ccc(Br)cc1)c1cccnc1` ?
Reply: no

Task item: Hey, what did the test say about `CNS(=O)(=O)Cc1ccc2[nH]cc(CCN(C)C)c2c1` ?
Reply: no

Task item: Hey, what did the test say about `CN(C)CC/C=C1\c2ccccc2COc2ccccc21` ?
Reply: no

Task item: Hey, what did the test say about `FC(F)(F)C(F)(F)C(F)(F)C(F)(F)C(F)(F)C(F)(F)CCI` ?
Reply: no

Task item: Hey, what did the test say about `CN(c1nccc(=O)[nH]1)C1CCN(c2nc3ccccc3n2Cc2ccc(F)cc2)CC1` ?
Reply: no
